# TEST_SUMMARY: Human hepatocyte stability
# Type: in vitro ADME
# MEASUREMENT_PARAMETERS: human hepatocytes 0.5×10^6 cells/mL, 120 minutes, read-out: in vitro CLint (hepatic)
MEASURED_ENDPOINT: microsomal CLint at 1 μM

Ask: Provide microsomal CLint at 1 μM value for the following compound: COc1ccc(C(=O)N2CCC(COc3ccc(-c4ccc(C#N)cc4)cc3)(C(=O)NS(=O)(=O)C(F)(F)F)C2)cc1 (stereo not drawn)
Reply: 1 to 10 µL/min/mg

Ask: Provide microsomal CLint at 1 μM value for the following compound: COc1ccc(C(=O)N2CCC(COc3ccc(-c4ccc(C#N)cc4)cc3)(C(=O)NS(C)(=O)=O)C2)cc1 (stereo not drawn)
Reply: < 1 µL/min/mg

Ask: Provide microsomal CLint at 1 μM value for the following compound: COc1ccc(C(=O)N2CCC(COc3ccc(-c4ccc(C#N)cc4)cc3)(C(=O)O)C2)cc1 (stereo not drawn) [Ref, reference compound]
Reply: 1 to 10 µL/min/mg
